Reference for the values: the METLIN SMRT retention time set (Domingo-Almenara et al. 2019)

# Method Notes: gradient 5% acetonitrile 3 min, to 50% in 2 min, to 85% in 15 min, held 3 min, 100 µL/min
# Measurement Context: column: Zorbax Extend-C18 2.1 x 50 mm; eluents: water / acetonitrile, 0.1% formic acid
RP-LC retention time reference
The reply should read as a number followed by its unit.

>  <Smiles Code>
O=C(N[C@H]1C[C@@H]2C[C@H]1CN2C(=O)c1ccc(F)c(Cl)c1)c1ccccc1

>  <RP-LC retention time>
772 s

$$$$

The recorded RP-LC retention time for entry CC(=O)c1sc(NC(=O)c2cc(Cl)sc2Cl)nc1-c1ccccc1 equals 1080 s

The recorded RP-LC retention time for entry O=C(Cn1nc2n(c1=O)CCCCC2)Nc1ccc(C(F)(F)F)cc1 equals 764 s

The recorded RP-LC retention time for entry CCN(CC)C(=O)c1ccc2c(c1)N(CC(=O)NCc1ccco1)C(=O)CO2 equals 652 s

###

# Method Notes: gradient 5% acetonitrile 3 min, to 50% in 2 min, to 85% in 15 min, held 3 min, 100 µL/min
# Measurement Context: column: Zorbax Extend-C18 2.1 x 50 mm; eluents: water / acetonitrile, 0.1% formic acid
RP-LC retention time reference
Answer with a number only, understood to be in s.

>  <Molecule>
Cc1cccc(N2CCN(c3ccc4cc(S(=O)(=O)N5CCCC5)ccc4n3)CC2)c1C

>  <Uom>
s

>  <RP-LC retention time>
1150

$$$$
>  <Molecule>
Cc1cc(C(=O)Nc2ccc(-c3nc(Cn4cccn4)c(C)o3)cc2)no1

>  <Uom>
s

>  <RP-LC retention time>
823

$$$$
>  <Molecule>
CC(=O)N1CCC([C@@H]2CN(C(=O)c3ccc(Br)o3)C[C@H]2CO)CC1

>  <Uom>
s

>  <RP-LC retention time>
622

$$$$
>  <Molecule>
C=CCN1C(=O)COc2ccc(-c3nc(NC(=O)C4CC4)sc3C)cc21

>  <Uom>
s

>  <RP-LC retention time>
887

$$$$
>  <Molecule>
N[C@@H](Cc1cc(CP(=O)(O)O)cc(-c2ccccc2Cl)c1)C(=O)O

>  <Uom>
s

>  <RP-LC retention time>
647

$$$$

The recorded RP-LC retention time for entry CN1CCN(S(=O)(=O)c2ccc3nn(Cc4cccc(F)c4)c(=O)n3c2)CC1 equals 964

The recorded RP-LC retention time for entry CCN(CC)S(=O)(=O)c1ccc2c(c1)N(CC(=O)NCCC(C)C)C(=O)C1CCCCN21 (configuration not stated) equals 991

The recorded RP-LC retention time for entry CCc1ccc(NC(=O)N2CCC(c3nc4cccnc4n3C)C2)cc1 (configuration not stated) equals 711

The recorded RP-LC retention time for entry COc1ccc(-c2noc(Cc3nc(-c4ccc(Br)cc4)cs3)n2)c(OC)c1 equals 1180

The recorded RP-LC retention time for entry CCNC(=O)C1CCN(S(=O)(=O)c2cc(C(=O)N(C)C)cs2)CC1 equals 624

The recorded RP-LC retention time for entry Cc1cc2nc(N3CCOCC3)n(CC(=O)Nc3ccc(N(C)C)cc3)c(=O)c2n1C equals 623

The recorded RP-LC retention time for entry CCn1cc(-c2ccc(F)cc2)cc1C(=O)N1CCC2(CC1)OCCO2 equals 963

The recorded RP-LC retention time for entry O=C(CSc1nc2ccccc2s1)N1CCN(C(=O)C2CC2c2ccccc2)CC1 (configuration not stated) equals 867

The recorded RP-LC retention time for entry Cc1cc(NC(=O)Nc2ccc3nc(N4CCN(C)CC4)cc(C)c3c2)ccc1Br equals 642

The recorded RP-LC retention time for entry O=C(CC1CCN(C(=O)c2ccc3oc(-c4ccccc4)nc3c2)CC1)N1CCOCC1 equals 682

The recorded RP-LC retention time for entry O=C(NC1(c2nc(-c3cnccn3)no2)CCCCC1)c1cc2cc(Cl)ccc2[nH]1 equals 916

The recorded RP-LC retention time for entry COc1ccccc1CNC(=O)C1CCN(S(C)(=O)=O)c2ccccc2O1 (configuration not stated) equals 807
